pIC50: −log10 of the molar value.
This section presents pIC50 values reported for SIK2 (Homo sapiens) in the literature.
MEASURED_ATTRIBUTE: pIC50

molecule="COc1cc(C)n(-c2nc(-n3cnc4cc(Nc5ccc(C)nn5)ccc43)ccc2C(C)O)n1 (stereo not drawn)" assayed_target="SIK2 (Homo sapiens)" reported=7.68
molecule="Cc1cc(C#N)nn1-c1nc(-n2cnc3cc(Nc4ccc(OC5COC5)nn4)ccc32)ccc1C(C)O (stereo not drawn)" assayed_target="SIK2 (Homo sapiens)" reported=8.43
molecule="Cc1cc(C#N)nn1-c1nc(-n2cnc3cc(F)c(Nc4cc5c(nn4)CCC5)cc32)ccc1C(C)O (stereo not drawn)" assayed_target="SIK2 (Homo sapiens)" reported=7.49
molecule="Cc1cc(C#N)nn1-c1nc(-n2cnc3cc(Nc4ccn(C)c(=O)n4)ccc32)ccc1C(C)O (stereo not drawn)" assayed_target="SIK2 (Homo sapiens)" reported=7.46
molecule="Cc1ccc(Nc2ccc3ncn(-c4ccc(C(O)C(F)F)c(-n5nc(C#N)cc5C)n4)c3c2)nn1 (stereo not drawn)" assayed_target="SIK2 (Homo sapiens)" reported=6.77
molecule="Cc1ccc(Nc2cc3ncn(-c4ccc(C(C)O)c(-n5nc(C#N)cc5C)n4)c3cc2OC2COC2)nn1 (stereo not drawn)" assayed_target="SIK2 (Homo sapiens)" reported=9.40
molecule=COC(=O)c1ccc(-n2cnc3cc(Nc4ccc(C)nn4)ccc32)nc1-n1nc(OC)cc1C assayed_target="SIK2 (Homo sapiens)" reported=6.81
molecule="Cc1ccc(Nc2ccc3c(c2)ncn3-c2ccc(C(C)O)c(-n3nc(C(F)(F)F)c4c3CCNC4)n2)nn1 (stereo not drawn)" assayed_target="SIK2 (Homo sapiens)" reported=9.70
molecule="Cc1ccc(Nc2ccc3c(c2)ncn3-c2ccc(C(C)O)c(-n3nc(C#N)c4c3C(F)(F)CNC4)n2)nn1 (stereo not drawn)" assayed_target="SIK2 (Homo sapiens)" reported=8.77
molecule="COc1ccnnc1Nc1ccc2c(c1)ncn2-c1ccc(C(C)O)c(-n2nc(C#N)cc2C)n1 (stereo not drawn)" assayed_target="SIK2 (Homo sapiens)" reported=8.49
molecule=COc1cc(C#N)n2c(-c3cc(OCC4(N)CCCCC4)c(C#N)c(SC)c3)cnc2c1 assayed_target="SIK2 (Homo sapiens)" reported=9.30
molecule="Cc1nn(CC(F)(F)F)cc1-c1nc(-n2cnc3cc(Oc4ccc(CN5CCOCC5)nn4)ccc32)ccc1C(C)O (stereo not drawn)" assayed_target="SIK2 (Homo sapiens)" reported=7.17
molecule="Cc1ccc(Nc2ccc3c(c2)ncn3-c2ccc(C(C)O)c(-c3cc(C#N)nn3C)n2)nn1 (stereo not drawn)" assayed_target="SIK2 (Homo sapiens)" reported=6.71
molecule="Cc1ccc(Nc2ccc3c(c2)ncn3-c2ccc(C(C)O)c(-n3nc(C(F)F)cc3C)n2)nn1 (stereo not drawn)" assayed_target="SIK2 (Homo sapiens)" reported=8.41
molecule="Cc1ccc(Nc2cc3ncn(-c4ccc(C(C)O)c(-n5nc(OC(F)F)cc5C)n4)c3cc2CC2COC2)nn1 (stereo not drawn)" assayed_target="SIK2 (Homo sapiens)" reported=7.89
molecule="Cc1ccc(Nc2ccc3c(c2)ncn3-c2ccc(C(C)O)c(N3CC(C(F)F)C4(CC4)C3)n2)nn1 (stereo not drawn)" assayed_target="SIK2 (Homo sapiens)" reported=7.67
molecule="CSc1cc(-c2cnc3ccccn23)cc(OC[C@@]2(N)CCC(F)(F)C2)c1C#N (mixture of isomers)" assayed_target="SIK2 (Homo sapiens)" reported=9.05
molecule="Cc1ccc(Nc2ccc3ncn(-c4ccc(C(C)O)c(N(C)CC5(C#N)CC5)n4)c3c2)nn1 (stereo not drawn)" assayed_target="SIK2 (Homo sapiens)" reported=5.68
molecule="Cc1ccc(Nc2ccc3c(c2)ncn3-c2ccc(C(C)O)c(-n3cc(C#N)nn3)n2)nn1 (stereo not drawn)" assayed_target="SIK2 (Homo sapiens)" reported=6.79
molecule="CCC(O)c1ccc(-n2cnc3cc(OC)c(OC)cc32)nc1-c1cccc(Cl)c1 (stereo not drawn)" assayed_target="SIK2 (Homo sapiens)" reported=6.72
molecule="Cc1ccc(Nc2ccc3c(c2)ncn3-c2ccc(C(C)O)c(N3CCC4(C3)CC4(F)F)n2)nn1 (stereo not drawn)" assayed_target="SIK2 (Homo sapiens)" reported=8.62
molecule=Cc1cc(C(=O)N(C)C)c(Nc2cc3ncn(-c4ccc([C@H](C)O)c(-n5nc(C(F)F)cc5C)n4)c3cc2F)nn1 assayed_target="SIK2 (Homo sapiens)" reported=7.31
molecule=Cc1ccc(Nc2ccc3c(c2)ncn3-c2ccc([C@H](C)O)c(-n3nc(C(F)F)cc3C(F)F)n2)nn1 assayed_target="SIK2 (Homo sapiens)" reported=9.10
molecule="Cc1nnc(Nc2cc3ncn(-c4ccc(C(C)O)c(-n5nc(C#N)cc5C)n4)c3cc2F)s1 (stereo not drawn)" assayed_target="SIK2 (Homo sapiens)" reported=8.55
molecule="Cc1ccc(Nc2ccc3c(c2)ncn3-c2ccc(C(C)O)c(N3CC(C#N)C4(CCC4)C3)n2)nn1 (stereo not drawn)" assayed_target="SIK2 (Homo sapiens)" reported=7.60
molecule="Cc1cc(C#N)nn1-c1nc(-n2cnc3cc(N4CC[C@@H](O)C4)ccc32)ccc1C(C)O (stereo partly drawn)" assayed_target="SIK2 (Homo sapiens)" reported=8.00
molecule=COc1cc(C)n(-c2nc(-n3cnc4cc(Nc5ccc(C)nn5)ccc43)ccc2CO)n1 assayed_target="SIK2 (Homo sapiens)" reported=7.38
molecule="Cc1ccc(Nc2ccc3c(c2)ncn3-c2ccc(C(C)O)c(-n3nc(C(F)F)cc3C(F)F)n2)nn1 (stereo not drawn)" assayed_target="SIK2 (Homo sapiens)" reported=8.74
molecule="CC(O)c1ccc(-n2cnc3cc(OCCN4CCOCC4)ccc32)nc1Nc1ccccc1 (stereo not drawn)" assayed_target="SIK2 (Homo sapiens)" reported=6.99
molecule="Cc1ccc(Nc2ccc3c(c2)ncn3-c2ccc(C(C)O)c(-n3nc(C(F)(F)F)c4c3CCN(C3COC3)C4)n2)nn1 (stereo not drawn)" assayed_target="SIK2 (Homo sapiens)" reported=8.55

---

This section presents IC50 values reported for SIK2 (Homo sapiens, UniProt Q9H0K1) in the literature.
Lab note: anything with IC50 below 10 nM is marked true; values at 10 nM or higher are marked false.

compound="Cc1ccc(Nc2ccc3c(c2)ncn3-c2ccc(C(C)O)c(-c3cc(C#N)n(C)n3)n2)nn1 (stereo not shown)" qualitative_label=false
compound="CSc1cc(-c2cnc3cccc(C#N)n23)cc(OC[C@@]2(N)CCCC(C)(C)C2)c1C#N (mixture of isomers)" qualitative_label=true
compound="Cc1ccc(Nc2ccc3c(c2)ncn3-c2ccc(C(C)O)c(N3CC4CC3C(F)(F)C4)n2)nn1 (stereo not shown)" qualitative_label=false
compound="CCc1cc(C(F)F)nn1-c1nc(-n2cnc3ccc(Nc4ccc(C)nn4)cc32)ccc1C(C)O (stereo not shown)" qualitative_label=false
compound="Cc1cc(C#N)nn1-c1nc(-n2cnc3ccc(NC(=O)C4CC4)cc32)ccc1C(C)O (stereo not shown)" qualitative_label=false
compound=CSc1cc(-c2cnc3cccc(C#N)n23)cc(OCC2(N)CCCC2)c1C#N qualitative_label=true
compound="CCOc1cc(C)n(-c2nc(-n3cnc4cc(Nc5ccc(C)nn5)ccc43)ccc2C(C)O)n1 (stereo not shown)" qualitative_label=true
compound=CC(=O)c1ccc(-n2cnc3cc4c(cc32)CCN4)nc1-n1nc(C#N)cc1C qualitative_label=true
compound="Cc1cc(C#N)nn1-c1nc(-n2cnc3ccc(CN4CCCS4(=O)=O)cc32)ccc1C(C)O (stereo not shown)" qualitative_label=false
compound="Cc1ccc(Nc2ccc3c(c2)ncn3-c2ccc(C(C)O)c(-c3ccn(CC(F)(F)F)c(=O)c3F)n2)nn1 (stereo not shown)" qualitative_label=true
compound="Cc1cc(C#N)nn1-c1nc(-n2cnc3cc(NC4CC(=O)N(C)C4)ccc32)ccc1C(C)O (stereo not shown)" qualitative_label=false
compound="Cc1ccc(Nc2ccc3c(c2)ncn3-c2ccc(C(C)O)c(-c3cc(C4CC4)ncc3C)n2)nn1 (stereo not shown)" qualitative_label=false
compound="Cc1ccc(Nc2ccc3c(c2)ncn3-c2ccc(C(C)O)c(N(C)CC3(C#N)CC3)n2)nn1 (stereo not shown)" qualitative_label=false

---

This section presents log10(IC50) values reported for SIK2 (Homo sapiens, UniProt Q9H0K1) in the literature.
MEASURED_ATTRIBUTE: log10(IC50) (log10 of the value in nM)

compound="COc1ccc(Nc2ccc3c(c2)ncn3-c2ccc(C(C)O)c(-n3nc(C#N)cc3C)n2)nn1 (stereo not shown)" assayed_target="SIK2 (Homo sapiens, UniProt Q9H0K1)" reported=0.34
compound=COc1cc2ncn(-c3ccc(CO)c(N4CCCCC4)n3)c2cc1OC assayed_target="SIK2 (Homo sapiens, UniProt Q9H0K1)" reported=2.43
compound="Cc1cc(OC(F)F)nn1-c1nc(-n2cnc3cc(Nc4ccc(C(F)F)nn4)ccc32)ccc1C(C)O (stereo not shown)" assayed_target="SIK2 (Homo sapiens, UniProt Q9H0K1)" reported=0.18
compound=CSc1cc(-c2cnc3ccc(N4CCCC4)c(C#N)n23)cc(OCC2(N)CCCC2)c1C#N assayed_target="SIK2 (Homo sapiens, UniProt Q9H0K1)" reported=-0.40
compound="Cc1ccc(Nc2ccc3c(c2)ncn3-c2ccc(C(C)O)c(-c3cn(CC(F)(F)F)nc3C)n2)nn1 (stereo not shown)" assayed_target="SIK2 (Homo sapiens, UniProt Q9H0K1)" reported=-0.15
compound=CCNC(=O)c1ccc(-n2cnc3cc(OC)c(OC)cc32)nc1-c1cccc(C#N)c1 assayed_target="SIK2 (Homo sapiens, UniProt Q9H0K1)" reported=3.71
compound="Cc1ccc(Nc2cc3ncn(-c4ccc(C(C)O)c(-n5nc(Cl)cc5C)n4)c3cc2F)nn1 (stereo not shown)" assayed_target="SIK2 (Homo sapiens, UniProt Q9H0K1)" reported=0.72
compound="Cc1cc(C#N)nn1-c1nc(-n2cnc3cc(C#N)ccc32)ccc1C(C)O (stereo not shown)" assayed_target="SIK2 (Homo sapiens, UniProt Q9H0K1)" reported=2.16
compound=COc1nn(C)cc1-c1ccc2c(c1)ncn2-c1ccc(C(C)=O)c(-n2nc(C#N)cc2C)n1 assayed_target="SIK2 (Homo sapiens, UniProt Q9H0K1)" reported=2.88
compound="Cc1ccc(Nc2ccc3c(c2)ncn3-c2ccc(C(C)O)c(N3C[C@@H](C#N)C[C@H]3C)n2)nn1 (stereo partly shown)" assayed_target="SIK2 (Homo sapiens, UniProt Q9H0K1)" reported=2.18
compound="Cc1ccc(Nc2ccc3c(c2)ncn3-c2ccc(C(C)O)c(-c3cc(C(F)F)ncc3C)n2)nn1 (stereo not shown)" assayed_target="SIK2 (Homo sapiens, UniProt Q9H0K1)" reported=0.00
compound="Cc1cc(C#N)nn1-c1nc(-n2cnc3cc(N4CCN(C)CC4)ccc32)ccc1C(C)O (stereo not shown)" assayed_target="SIK2 (Homo sapiens, UniProt Q9H0K1)" reported=1.80
compound="Cc1ccc(Nc2ccc3c(c2)ncn3-c2ccc(C(C)O)c(-n3nc(C#N)c4c3CCNC4)n2)nn1 (stereo not shown)" assayed_target="SIK2 (Homo sapiens, UniProt Q9H0K1)" reported=-0.52
compound="Cc1ccc(Nc2ccc3c(c2)ncn3-c2ccc(C(C)O)c(-c3cnn(CC4CCC4)c3C)n2)nn1 (stereo not shown)" assayed_target="SIK2 (Homo sapiens, UniProt Q9H0K1)" reported=0.08
compound="Cc1cc(C#N)nn1-c1nc(-n2cnc3cc(N4CCC[C@H]4C#N)ccc32)ccc1C(C)O (stereo partly shown)" assayed_target="SIK2 (Homo sapiens, UniProt Q9H0K1)" reported=0.98
compound=CNC(=O)c1ccc(-n2cnc3cc(OC)c(OC)cc32)nc1-c1cccc(C#N)c1 assayed_target="SIK2 (Homo sapiens, UniProt Q9H0K1)" reported=3.76
